Measured gMFI, listed per entry for reference.
# test-system: T1, murine CD300F stably expressed on Jurkat cells (mouse, UniProt Q6SJQ7 20-337)
# T1 construct: also called muCD300F
# T1 sequence: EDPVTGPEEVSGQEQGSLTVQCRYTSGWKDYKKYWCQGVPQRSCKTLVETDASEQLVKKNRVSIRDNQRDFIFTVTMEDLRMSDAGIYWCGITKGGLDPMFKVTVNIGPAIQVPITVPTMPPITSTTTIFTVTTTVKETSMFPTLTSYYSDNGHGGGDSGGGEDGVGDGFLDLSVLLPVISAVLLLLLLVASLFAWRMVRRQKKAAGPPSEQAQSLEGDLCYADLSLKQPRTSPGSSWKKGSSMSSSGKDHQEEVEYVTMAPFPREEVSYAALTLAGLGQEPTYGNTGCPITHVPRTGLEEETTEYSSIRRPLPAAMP
# measurement-protocol: flow cytometry, stable Jurkat cells, 10 ug/mL, isotype subtracted
Report only the number, with the unit gMFI understood.

Give the measured gMFI of anti-CD300LB antibody CD-11 (antibody, V domains shown) VH: QIQLVQSGPEVKKPGETVKISCKASGYTLTDYSMHWVMQTPGTGLKWMAWMNTETGEPTYADDFKGRFAFSLETSAGTAYLQIDNLKNEDTATYFCATYGKSYGMKYWGQGTSVTVSS VL: DIVLTQSPPSLAVSLGQRATISCRATKSVSPYLHWYQQTPGQPPKLLIYLASNLDSGVPARFSGSGSGTDFTLNIHPVEEEDAATYYCQHNKELPPTFGGGTRLEIK .
2.35

I'd like to know its gMFI. The binder in question is anti-CD300LB antibody CD-18 (antibody, V domains shown) VH: DVQLQESGPDLVKPSQSLSLTCTVTGYSITSGYSWHWIRQFPDNKLEWMGYILSRGDTNFNPSLKSRISITRSTSNNQFFLHFNSVTTEDTATYYCARDFFDYWGQGTTLTVSS VL: DVLMTQTPLSLPVSLGDQASISCRSSQSIVHSNGNTYLEWYLQKPGQSPKLLIYKVSDRFSGVPDRFSGSGSGTDFTLKISRVEAEDLGVYFCFQGSHVPYTFGGGTKLEIK
6.6
